- test_method_notes: Plasma OSTN concentration, metabolic clearance rate and half-life during and after stepped I.V. infusion (OSTN RIA)
- Format: in vivo, sheep
- applied_conditions: Coopworth, sheep, plasma, iv, 250 pmol/kg/min, end of 60 min I.V. infusion at 250 pmol/kg/min; sheep n = 8; RIA; mean ± SD
Where no end group is shown, it is not given here.
metric: level at time molar at 1 h
Answer format reminder: number followed by unit.

# sequence SFSGFGSPLDRLSAGSVSHKGKQRKVVDHPKRRFGIPMDRIGRNRLSNSRG [OSTN] ; its level at time molar at 1 h = 6.09 nM

---

- test_method_notes: Plasma OSTN concentration, metabolic clearance rate and half-life during and after stepped I.V. infusion (OSTN RIA)
- Type: in vivo, sheep
- applied_conditions: Coopworth, sheep, plasma, iv, 25 pmol/kg/min, end of 60 min I.V. infusion at 25 pmol/kg/min; sheep n = 8; RIA; mean ± SD
Where no end group is shown, it is not given here.
metric: level at time molar at 1 h (nM)
# number only, unit nM dropped from output

What the record says about SFSGFGSPLDRLSAGSVSHKGKQRKVVDHPKRRFGIPMDRIGRNRLSNSRG [OSTN] : level at time molar at 1 h is 0.48

These entries and their values trace back to paper PMC11291853.
